- Tested on: B16F10
- experiment-description: Growth inhibition test (MTT), cytotoxic action on tumour cell lines
- Format: cell-based, mouse
- measurement-conditions: B16F10; MTT after day 6; read-out: IC50 values of the cytotoxic action on tumour cell lines, B16F10
*1 amine or outer side, *2 acyl side, *3 side chain or, on linkers, in order; H or OH if unused. Where a SMILES comes first, the peptide text is derived from it. [ ]: non-standard residue; d: D form. The star is where a group is joined. Camptothecin(20R,20-O) = CC[C@]1(O*)C(=O)OCc2c1cc1n(c2=O)Cc2cc3ccccc3nc2-1; X1 = CCCNC(=O)Nc1cccc(S(=O)(=O)Nc2cccc(C(CC(=O)O)N*)c2)c1; NH(1,4-C6H4)NHCS = S=C(Nc1ccc(N[*:1])cc1)[*:2]; CO = O=C([*:1])[*:2]
Listed here are compounds together with their documented IC50.
property-measured: IC50 (nM)

compound: CCCNC(=O)Nc1cccc(S(=O)(=O)Nc2cccc(C(CC(=O)O)NC(=O)Nc3ccc(NC(=S)N4CCC[C@@H]4C(=O)NCC(=O)NCC(=O)N[C@H](CC(C)C)C(=O)N[C@H](CC(N)=O)C(=O)N[C@@H](C(=O)O[C@@]4(CC)C(=O)OCc5c4cc4n(c5=O)Cc5cc6ccccc6nc5-4)C(C)C)cc3)c2)c1 (stereo partly drawn) [Example 23] ({X1-CO}-[NH(1,4-C6H4)NHCS][dP]GG[dL][dN][dV]-{Camptothecin(20R,20-O)})
observed-value: 1500
//
compound: CCCNC(=O)Nc1cccc(S(=O)(=O)Nc2cccc(C(CC(=O)O)NC(=O)Nc3ccc(NC(=S)N4CCC[C@H]4C(=O)N[C@@H](CC(C)C)C(=O)NCC(=O)N[C@@H](CC(C)C)C(=O)N[C@@H](Cc4ccccc4)C(=O)N[C@H](C(=O)O[C@]4(CC)C(=O)OCc5c4cc4n(c5=O)Cc5cc6ccccc6nc5-4)C(C)C)cc3)c2)c1 (stereo partly drawn)
observed-value: 1000
//
compound: CCCNC(=O)Nc1cccc(S(=O)(=O)Nc2cccc(C(CC(=O)O)NC(=O)Nc3ccc(NC(=S)N4CCC[C@@H]4C(=O)N[C@@H](CC(C)C)C(=O)NCC(=O)N[C@H](CC(C)C)C(=O)N[C@H](CCCCN)C(=O)N[C@H](C(=O)O[C@@]4(CC)C(=O)OCc5c4cc4n(c5=O)Cc5cc6ccccc6nc5-4)C(C)C)cc3)c2)c1 (stereo partly drawn) [Example 20] ({X1-CO}-[NH(1,4-C6H4)NHCS][dP]LG[dL][dK]V-{Camptothecin(20R,20-O)})
observed-value: 300

###

- Tested on: SW 480
- experiment-description: Growth inhibition test (MTT), cytotoxic action on tumour cell lines
- Type: cell-based, human
- measurement-conditions: SW480; MTT after day 6; read-out: IC50 values of the cytotoxic action on tumour cell lines, SW480
Listed here are compounds together with their documented IC50.

compound: CCCNC(=O)Nc1cccc(S(=O)(=O)Nc2cccc(C(CC(=O)O)NC(=O)Nc3ccc(NC(=S)N4CCC[C@H]4C(=O)N[C@@H](CC(C)C)C(=O)NCC(=O)N[C@@H](CC(C)C)C(=O)NCC(=O)N[C@H](C(=O)O[C@]4(CC)C(=O)OCc5c4cc4n(c5=O)Cc5cc6ccccc6nc5-4)C(C)C)cc3)c2)c1 (stereo partly drawn)
IC50 [µM]: 0.5
//
compound: CCCNC(=O)Nc1cccc(S(=O)(=O)Nc2cccc(C(CC(=O)O)NC(=O)Nc3ccc(NC(=S)N4CCC[C@H]4C(=O)N[C@@H](CC(C)C)C(=O)NCC(=O)N[C@@H](CC(C)C)C(=O)N[C@H](C(=O)N[C@H](C(=O)O[C@]4(CC)C(=O)OCc5c4cc4n(c5=O)Cc5cc6ccccc6nc5-4)C(C)C)C(C)CC)cc3)c2)c1 (stereo partly drawn)
IC50 [µM]: 0.2
//
compound: CCCNC(=O)Nc1cccc(S(=O)(=O)Nc2cccc(C(CC(=O)O)NC(=O)Nc3ccc(NC(=S)N4CCC[C@H]4C(=O)N[C@@H](CC(C)C)C(=O)NCC(=O)N[C@@H](CC(C)C)C(=O)N[C@H](C)C(=O)N[C@H](C(=O)O[C@]4(CC)C(=O)OCc5c4cc4n(c5=O)Cc5cc6ccccc6nc5-4)C(C)C)cc3)c2)c1 (stereo partly drawn)
IC50 [µM]: 0.3

###

Listed here are molecules together with their documented pIC50.
- System: HT29
- experiment-description: Growth inhibition test (MTT), cytotoxic action on tumour cell lines
- Type: cell-based, human
- measurement-conditions: human, 6 days
pIC50: −log10 of the molar value.

molecule: CCCNC(=O)Nc1cccc(S(=O)(=O)Nc2cccc(C(CC(=O)O)NC(=O)Nc3ccc(NC(=S)N4CCC[C@@H]4C(=O)N[C@@H](CC(C)C)C(=O)NCC(=O)N[C@H](CC(C)C)C(=O)N[C@H](CC(N)=O)C(=O)N[C@@H](C(=O)O[C@@]4(CC)C(=O)OCc5c4cc4n(c5=O)Cc5cc6ccccc6nc5-4)C(C)C)cc3)c2)c1 (some centres unmarked) [Example 9]
target-or-test-system: HT29
pIC50: 7.10
--
molecule: CCCNC(=O)Nc1cccc(S(=O)(=O)Nc2cccc(C(CC(=O)O)NC(=O)Nc3ccc(NC(=S)N4CCC[C@@H]4C(=O)N[C@@H](CC(C)C)C(=O)NCC(=O)N[C@H](CSC)C(=O)N[C@H](Cc4c[nH]cn4)C(=O)N[C@@H](C(=O)O[C@@]4(CC)C(=O)OCc5c4cc4n(c5=O)Cc5cc6ccccc6nc5-4)C(C)C)cc3)c2)c1 (some centres unmarked) [Example 19]
target-or-test-system: HT29
pIC50: 7.10

###

- target-or-test-system: αvβ3 receptor (Homo sapiens, UniProt P05106+P06756)
- Construct: αvβ3 from human A375 cells was purified; endogenous in cells; host or cells: human A375 cells (receptor purified from the cells, analogous to Wong et al. 1996)
- Sequence (P06756 31-889 limits assumed): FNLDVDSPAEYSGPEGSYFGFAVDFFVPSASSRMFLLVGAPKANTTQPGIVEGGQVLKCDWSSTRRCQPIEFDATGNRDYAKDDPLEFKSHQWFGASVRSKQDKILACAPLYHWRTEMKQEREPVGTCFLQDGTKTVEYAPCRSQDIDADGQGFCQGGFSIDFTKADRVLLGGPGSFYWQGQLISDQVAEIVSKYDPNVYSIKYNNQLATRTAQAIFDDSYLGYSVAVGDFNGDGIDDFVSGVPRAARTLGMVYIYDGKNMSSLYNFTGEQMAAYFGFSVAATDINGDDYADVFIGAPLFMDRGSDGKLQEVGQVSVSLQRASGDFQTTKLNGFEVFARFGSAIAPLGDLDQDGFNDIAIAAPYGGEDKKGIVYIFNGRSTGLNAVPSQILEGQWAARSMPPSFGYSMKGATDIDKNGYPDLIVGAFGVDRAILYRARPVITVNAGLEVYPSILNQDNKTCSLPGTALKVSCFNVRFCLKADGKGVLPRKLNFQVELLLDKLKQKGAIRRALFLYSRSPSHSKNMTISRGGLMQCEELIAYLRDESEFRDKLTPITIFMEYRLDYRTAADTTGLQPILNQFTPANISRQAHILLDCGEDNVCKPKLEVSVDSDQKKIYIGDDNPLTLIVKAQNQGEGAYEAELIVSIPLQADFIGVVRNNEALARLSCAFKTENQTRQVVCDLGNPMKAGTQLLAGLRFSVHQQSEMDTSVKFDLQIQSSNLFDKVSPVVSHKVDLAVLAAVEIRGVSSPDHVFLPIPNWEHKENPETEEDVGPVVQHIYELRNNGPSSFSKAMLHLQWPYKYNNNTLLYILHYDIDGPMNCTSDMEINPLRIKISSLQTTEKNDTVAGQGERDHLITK
- Sequence (P06756 891-1048 partner limits assumed): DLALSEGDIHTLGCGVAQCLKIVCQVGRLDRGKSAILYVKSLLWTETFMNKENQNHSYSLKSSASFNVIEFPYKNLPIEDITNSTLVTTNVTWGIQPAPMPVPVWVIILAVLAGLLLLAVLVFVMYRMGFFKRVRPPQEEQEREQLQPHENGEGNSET
- Sequence (P05106 27-788): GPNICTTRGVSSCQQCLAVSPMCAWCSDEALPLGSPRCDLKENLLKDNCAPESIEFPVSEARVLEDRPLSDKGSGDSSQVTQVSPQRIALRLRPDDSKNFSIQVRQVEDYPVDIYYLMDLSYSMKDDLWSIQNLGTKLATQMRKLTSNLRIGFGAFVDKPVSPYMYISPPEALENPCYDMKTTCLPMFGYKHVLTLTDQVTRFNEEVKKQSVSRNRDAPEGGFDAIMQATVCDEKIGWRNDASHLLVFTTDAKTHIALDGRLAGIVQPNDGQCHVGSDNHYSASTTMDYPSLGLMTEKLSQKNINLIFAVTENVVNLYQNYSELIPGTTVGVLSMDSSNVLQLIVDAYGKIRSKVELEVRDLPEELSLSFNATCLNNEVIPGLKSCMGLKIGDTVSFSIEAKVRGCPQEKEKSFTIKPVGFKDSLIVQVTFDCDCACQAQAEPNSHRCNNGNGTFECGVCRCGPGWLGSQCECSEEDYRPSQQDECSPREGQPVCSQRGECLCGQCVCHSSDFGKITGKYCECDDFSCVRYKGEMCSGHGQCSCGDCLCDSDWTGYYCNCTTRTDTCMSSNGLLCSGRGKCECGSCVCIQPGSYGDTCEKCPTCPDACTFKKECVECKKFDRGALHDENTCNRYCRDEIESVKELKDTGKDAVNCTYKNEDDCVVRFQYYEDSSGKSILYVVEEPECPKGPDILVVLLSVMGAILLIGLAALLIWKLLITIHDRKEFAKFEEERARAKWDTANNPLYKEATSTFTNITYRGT
- experiment-description: αvβ3 binding test (echistatin displacement, WGA SPA beads)
- measurement-conditions: IC50 values of the binding to the αvβ3 receptor, αvβ3 from human A375 cells
*1 amine or outer side, *2 acyl side, *3 side chain or, on linkers, in order; H or OH if unused. Where a SMILES comes first, the peptide text is derived from it. [ ]: non-standard residue; d: D form. The star is where a group is joined. Camptothecin(20R,20-O) = CC[C@]1(O*)C(=O)OCc2c1cc1n(c2=O)Cc2cc3ccccc3nc2-1; X2 = CCCNC(=O)Nc1cccc(S(=O)(=O)Nc2cccc(C(CC(=O)O)NC(=O)Nc3ccc(N*)cc3)c2)c1; CO = O=C([*:1])[*:2]; GABA = NCCCC(=O)O
Listed here are compounds together with their documented log10 IC50.
property-measured: log10 IC50 (log10 of the value in nM)

compound: CCCNC(=O)Nc1cccc(S(=O)(=O)Nc2cccc(C(CC(=O)O)NC(=O)Nc3ccc(NC(=O)N4CCC[C@@H]4C(=O)N[C@@H](CC(C)C)C(=O)NCC(=O)N[C@H](CC(C)C)C(=O)N[C@H](CC(N)=O)C(=O)N[C@@H](C(=O)O[C@@]4(CC)C(=O)OCc5c4cc4n(c5=O)Cc5cc6ccccc6nc5-4)C(C)C)cc3)c2)c1 (stereo partly drawn) [Example 12] ({X2-CO}-[dP]LG[dL][dN][dV]-{Camptothecin(20R,20-O)})
observed-value: 2.48

compound: CCCNC(=O)Nc1cccc(S(=O)(=O)Nc2cccc(C(CC(=O)O)NC(=O)Nc3ccc(NC(=O)NCCCC(=O)N4CCC[C@@H]4C(=O)N[C@@H](CC(C)C)C(=O)NCC(=O)N[C@H](CC(C)C)C(=O)N[C@H](CC(N)=O)C(=O)N[C@@H](C(=O)O[C@@]4(CC)C(=O)OCc5c4cc4n(c5=O)Cc5cc6ccccc6nc5-4)C(C)C)cc3)c2)c1 (stereo partly drawn) [Example 18] ({X2-CO-GABA}-[dP]LG[dL][dN][dV]-{Camptothecin(20R,20-O)})
observed-value: 1.30

compound: CCCNC(=O)Nc1cccc(S(=O)(=O)Nc2cccc(C(CC(=O)O)NC(=O)Nc3ccc(NC(=O)N4CCC[C@@H]4C(=O)N[C@@H](CC(C)C)C(=O)NCC(=O)N[C@H](CC(C)C)C(=O)N[C@H](Cc4c[nH]cn4)C(=O)N[C@@H](C(=O)O[C@@]4(CC)C(=O)OCc5c4cc4n(c5=O)Cc5cc6ccccc6nc5-4)C(C)C)cc3)c2)c1 (stereo partly drawn) [Example 6] ({X2-CO}-[dP]LG[dL][dH][dV]-{Camptothecin(20R,20-O)})
observed-value: 1.78

compound: CCCNC(=O)Nc1cccc(S(=O)(=O)Nc2cccc(C(CC(=O)O)NC(=O)Nc3ccc(NC(=O)N4CCC[C@@H]4C(=O)N[C@@H](CC(C)C)C(=O)NCC(=O)N[C@H](CC(C)C)C(=O)N[C@H](Cc4c[nH]c5ccccc45)C(=O)N[C@@H](C(=O)O[C@@]4(CC)C(=O)OCc5c4cc4n(c5=O)Cc5cc6ccccc6nc5-4)C(C)C)cc3)c2)c1 (stereo partly drawn) [Example 15] ({X2-CO}-[dP]LG[dL][dW][dV]-{Camptothecin(20R,20-O)})
observed-value: 2.70

compound: CCCNC(=O)Nc1cccc(S(=O)(=O)Nc2cccc(C(CC(=O)O)NC(=O)Nc3ccc(NC(=S)N4CCCC4C(=O)NC(CC(C)C)C(=O)NCC(=O)N[C@H](CC(C)C)C(=O)N[C@@H](C(=O)O[C@@]4(CC)C(=O)OCc5c4cc4n(c5=O)Cc5cc6ccccc6nc5-4)C(C)C)cc3)c2)c1 (some centres unmarked) [Example 8]
observed-value: 1.48
